The following binders are shown together with reported pKd values.
Biological target: T1, biotin-Aβ1-20 (UniProt P05067 672-691, biotin (site not stated))
T1 construct: domain: Aβ1-20; Monomeric Aβ fragment used as BIACORE antigen; also called biotinylated-Aβ1-20
T1 peptide (looked up): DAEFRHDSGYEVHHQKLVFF
Assay: BIACORE, Fab against biotinylated-Aβ1-20
Reminder that pKd means the negative base-10 logarithm of the concentration expressed in mol/L.

[[record]]
binder = "4b-B10 Fab (Fab, V domains shown) VH: QVTLKESGPALVKPTQTLTLTCTLSGFSLSTSGMGVGWIRQPPGKALEWLAHIWWDDDKSYNPSLKSRLTISKDTSKNQVVLTMTNMDPVDTATYYCARRQLGAHWLDAMDYWGQGTTVTVSS VL: DVVMTQSPLSLPVTPGEPASISCRSSQSILHSNGNTYLEWYLQKPGQSPQLLIYKVSNRFSGVPDRFSGSGSGTDFTLKISRVEAEDVGVYYCLQTTRVPLTFGQGTKLEIKR"
experimental_result = 8.13

[[record]]
binder = "4a-C9 Fab (Fab, V domains shown) VH: QVTLKESGPALVKPTQTLTLTCTLSGFSLSTSGMGVGWIRQPPGKALEWLAHIWWDDDKSYNPSLKSRLTISKDTSKNQVVLTMTNMDPVDTATYYCARRQLGQAGHDAMDYWGQGTTVTVSS VL: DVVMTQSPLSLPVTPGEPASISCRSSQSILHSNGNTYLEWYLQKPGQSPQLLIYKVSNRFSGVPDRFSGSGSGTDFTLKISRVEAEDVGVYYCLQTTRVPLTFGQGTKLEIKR"
experimental_result = 8.61


Now take the following binder into account.
**Query** Endpoint output: pKd of 4b-A12 Fab (Fab, V domains shown) VH: QVTLKESGPALVKPTQTLTLTCTLSGFSLSTSGMGVGWIRQPPGKALEWLAHIWWDDDKSYNPSLKSRLTISKDTSKNQVVLTMTNMDPVDTATYYCARRQLGPEPQDAMDYWGQGTTVTVSS VL: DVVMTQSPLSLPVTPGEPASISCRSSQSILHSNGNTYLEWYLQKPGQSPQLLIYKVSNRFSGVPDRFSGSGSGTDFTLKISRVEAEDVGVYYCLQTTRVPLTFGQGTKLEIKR . Value?
**Result** 8.00
